Data origin: patent US8513232B2

# EXPERIMENTAL_TARGET: rat histamine H3 receptor (Rattus norvegicus)
# Construct: encoding the entire 445-amino-acid rat histamine H3 receptor; expressed in transfected cells; membrane preparation
# Sequence (Q9QYN8 whole entry): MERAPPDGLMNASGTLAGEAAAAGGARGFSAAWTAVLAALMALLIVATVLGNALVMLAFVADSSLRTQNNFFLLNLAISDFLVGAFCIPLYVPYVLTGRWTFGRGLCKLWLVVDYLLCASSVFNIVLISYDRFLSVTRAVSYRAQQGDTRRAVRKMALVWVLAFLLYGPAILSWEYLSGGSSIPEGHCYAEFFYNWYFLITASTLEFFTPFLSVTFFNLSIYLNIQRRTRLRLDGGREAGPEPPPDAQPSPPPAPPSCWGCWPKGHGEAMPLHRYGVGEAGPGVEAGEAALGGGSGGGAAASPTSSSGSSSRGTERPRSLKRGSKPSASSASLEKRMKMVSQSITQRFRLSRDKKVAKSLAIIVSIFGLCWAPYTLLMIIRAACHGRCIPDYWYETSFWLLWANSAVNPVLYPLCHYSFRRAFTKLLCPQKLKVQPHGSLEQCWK
# ASSAY_OVERVIEW: Rat H3 radioligand binding ([3H]-N-alpha-methylhistamine, SPA)
# PROTOCOL_CONDITIONS: rat H3 binding, Table D; read-out: Rat H3 Ki
Can you tell me Ki for the items I'm about to list?

Take a look at these entries with their results.
Prompt: Look up Ki of Cc1cc(C(=O)NC2CCOCC2)ccc1-c1ccc2c(c1)COC1(CCN(C3CCC3)CC1)O2 and report it.
Completion: < 200 nM

Prompt: Look up Ki of COc1ncccc1-c1ccc2c(c1)COC1(CCN(C3CCC3)CC1)O2 and report it.
Completion: < 200 nM

Prompt: Look up Ki of CCc1cc(OC)ncc1-c1ccc2c(c1)COC1(CCN(C3CCC3)CC1)O2 and report it.
Completion: < 200 nM

Prompt: Look up Ki of O=c1[nH]cc(-c2ccc3c(c2)COC2(CCN(C4CCC4)CC2)O3)cc1CO and report it.
Completion: < 200 nM

Prompt: Look up Ki of O=C(CCc1ccc2c(c1)COC1(CCN(C3CCC3)CC1)O2)N1CCOCC1 and report it.
Completion: < 200 nM

Prompt: Look up Ki of COCc1cc(=O)n(C)cc1-c1ccc2c(c1)COC1(CCN(C3CCC3)CC1)O2 and report it.
Completion: < 200 nM

For the 2 compounds below, give their Ki values.
1. COC(c1ccncc1)c1ccc2c(c1)COC1(CCN(C3CCC3)CC1)O2 (centres unmarked)
2. CCc1cc(=O)[nH]cc1-c1ccc2c(c1)COC1(CCN(C3CCC3)CC1)O2

Completion:
1: < 200 nM; 2: < 200 nM

----------
# EXPERIMENTAL_TARGET: human H3 receptor (Homo sapiens, UniProt Q9Y5N1)
# Construct: expressed in transfected cells
# Sequence (Q9Y5N1 whole entry): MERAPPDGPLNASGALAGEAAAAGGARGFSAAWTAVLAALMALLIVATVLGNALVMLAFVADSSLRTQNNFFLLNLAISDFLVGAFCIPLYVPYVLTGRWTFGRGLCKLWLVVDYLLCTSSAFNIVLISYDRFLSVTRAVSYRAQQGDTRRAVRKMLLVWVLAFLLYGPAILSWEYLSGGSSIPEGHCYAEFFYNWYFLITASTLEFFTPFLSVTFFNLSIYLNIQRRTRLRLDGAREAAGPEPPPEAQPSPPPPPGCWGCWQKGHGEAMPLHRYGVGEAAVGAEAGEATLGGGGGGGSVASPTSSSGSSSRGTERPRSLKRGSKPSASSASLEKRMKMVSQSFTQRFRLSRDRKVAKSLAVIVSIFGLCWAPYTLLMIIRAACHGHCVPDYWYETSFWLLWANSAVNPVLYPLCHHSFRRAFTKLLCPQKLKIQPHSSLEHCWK
# ASSAY_OVERVIEW: Human H3 radioligand binding ([3H]-N-alpha-methylhistamine, SPA)
# PROTOCOL_CONDITIONS: Human H3 binding, Table B, Examples 136-362; read-out: hum H3 binding Ki
pKi: −log10 of the molar value.
RECORDED_METRIC: pKi

Take a look at these entries with their results.
Prompt: Look up pKi of CC(C)OCCNC(=O)c1ccc(-c2ccc3c(c2)CCC2(CCN(C4CCC4)CC2)O3)cc1 [Example 312] and report it.
Completion: > 6.70

Prompt: Look up pKi of O=C1N(c2ccccc2)CCN1c1ccc2c(c1)CCC1(CCN(C3CCC3)CC1)O2 [Example 229] and report it.
Completion: > 6.70

Prompt: Look up pKi of CNC(=O)c1cnc(-c2ccc3c(c2)CCC2(CCN(C4CCC4)CC2)O3)s1 [Example 218] and report it.
Completion: > 6.70

For the 6 compounds below, give their pKi values.
1. Cc1n[nH]c(C)c1-c1ccc2c(c1)CCC1(CCN(C3CCC3)CC1)O2 [Example 167]
2. CN(C)C(=O)NC1CCN(c2ccc3c(c2)COC2(CCN(C4CCC4)CC2)O3)CC1 [Example 329]
3. O=C(Nc1ccc2c(c1)COC1(CCN(C3CCC3)CC1)O2)c1cc[nH]c(=O)c1 [Example 278]
4. O=c1oc2ccccc2n1-c1ccc2c(n1)COC1(CCN(C3CCC3)CC1)O2 [Example 161]
5. O=C(NCCO)c1ccc(-c2ccc3c(c2)CCC2(CCN(C4CCC4)CC2)O3)cc1 [Example 140]
6. COCCNC(=O)c1ccc(-c2ccc3c(c2)COC2(CCN(C4CCC4)CC2)O3)cc1C [Example 255]

Completion:
1. > 6.70
2. > 6.70
3. > 6.70
4. > 6.70
5. > 6.70
6. > 6.70
